The following binders are listed with their measured Kd values.
Target: T1, TMEW19 (spTMEFF2(230-320)G3S-H6) (human, UniProt Q9UIK5 230-320)
T1 construct: Residues 230-320 of human TMEFF2 with G3S and 6xHis tag, all in the entry; also called TMEFF2 membrane proximal region; MP
T1 sequence: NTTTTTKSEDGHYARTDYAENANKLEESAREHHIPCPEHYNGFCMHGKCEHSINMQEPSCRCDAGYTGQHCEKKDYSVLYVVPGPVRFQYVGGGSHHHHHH
Test: ProteOn SPR, mAb captured on anti-human Fc, TMEFF2 as analyte
Give the number; nM is assumed, so skip it.

Look over these answered cases.
binder: TMEB565 (antibody, human IgG4 S228P, kappa, F234A L235A, V domains shown, IgG4 PAA anti-TMEFF2; also called TMEH396/TMEL111) VH: QVQLVQSGAEVKKPGSSVKVSCKASGGTFSSYYISWVRQAPGQGLEWMGGIIPISGRANYAQKFQGRVTITADESTSTAYMELSSLRSEDTAVYYCARDGYSSGRSTTYAFDYWGQGTLVTVSS VL: EIVLTQSPGTLSLSPGERATLSCRASQSVATYYLAWYQQKPGQAPRLLIYGASSRATGIPDRFSGSGSGTDFTLTISRLEPEDFAVYYCQQYGYNPITFGQGTKVEIKR
Kd (nM): 0.01

binder: TMEB675 (antibody, human IgG4 S228P, kappa, F234A L235A, V domains shown, IgG4 PAA anti-TMEFF2; also called TMEH411/TMEL127) VH: EVQLLESGGGLVQRGGSLRPSCAASGFTFSSYSMSWVRQAPGKGLEWVSVISGSGGFTDYADSVKGRFTISRDNSKNTLYLHMNSLRAEDTAVYYCARMPLNSPHDYWGQGTLVTVSS VL: AIQMTQSPSSLSASVGDRVTITCRASQGIRNDLGWYQQKPGKAPKLLIYAASSLQSGVPSRFSGSGSGTDFTLTISSLQPEDFATYYCLQDYNYALTFGGGTKVEIKR
Kd (nM): 0.2

binder: TMEB570 (antibody, human IgG4 S228P, kappa, F234A L235A, V domains shown, IgG4 PAA anti-TMEFF2; also called TMEH396/TMEL112) VH: QVQLVQSGAEVKKPGSSVKVSCKASGGTFSSYYISWVRQAPGQGLEWMGGIIPISGRANYAQKFQGRVTITADESTSTAYMELSSLRSEDTAVYYCARDGYSSGRSTTYAFDYWGQGTLVTVSS VL: EIVLTQSPGTLSLSPGERATLSCRASQSVSTYYLAWYQQKPGQAPRLLIYGASYRATGIPDRFSGSGSGTDFTLTISRLEPEDFAVYYCQQYGHSPITFGQGTKVEIKR
Kd (nM): 0.06

Next binder, Kd to be filled in.
Input: Look at this binder and give its reported Kd. TMEB674 (antibody, human IgG4 S228P, kappa, F234A L235A, V domains shown, IgG4 PAA anti-TMEFF2; also called TMEH410/TMEL126) VH: VQLLESGGGLVQPPGGSLRLSCAASGFTFSSYSMSWVRQAPGKGLEWVSVISGGGSFTSYADSVKGRFTISRDNSNNTLYLQMSSLRAEDTAFYYCARMPLNSPHDCWGQGTLVTVSS VL: AIQMTQSPSSLSASVGDRVTITCRASQGIRNDLGWYQQKPGKAPKLLIYAASSLQSGVPSRFSGSGSGTDFTLTISSLQPEDFATYYCLQDYNYSLTFGGGTKVEIRR
Output: 0.2
